Data origin: the supplement of paper PMC9112550

Tested on: Escherichia coli TOP10
Assay: shrunken log2 fold change of peptide-encoding DNA abundance (4.5 h post-induction vs induction); higher = less antimicrobial activity (less host growth inhibition)
Details: time post-induction: 4.5 h; library: site-saturation at positions 5, 18, 19, 20
Classification field: T = shrunken log2 fold change at or over 0.01; F = shrunken log2 fold change under 0.01.

RRIRSRPPRLPRPRPRPSMEPRP    F

Data request: Quick check, shrunken log2 fold change >= 0.01? RRIRRRPPRLPRPRPRPKHFPRP
Data returned: T

Data request: # bool: shrunken log2 fold change of RRIRNRPPRLPRPRPRPCRCPRP >= 0.01
Data returned: F

====

System: Escherichia coli TOP10
Test: shrunken log2 fold change of peptide-encoding DNA abundance (4.5 h post-induction vs induction); higher = less antimicrobial activity (less host growth inhibition)
Settings: time post-induction: 4.5 h; library: site-saturation at positions 5, 18, 19, 20
Returns the class for an entry based on its shrunken log2 fold change. Class ranges: low interval: < -0.04; middle interval: ≥ -0.04 and < 0.1; high interval: ≥ 0.1

Solved cases (5 shown):
RRIRIRPPRLPRPRPRPWNGPRP    low interval
RRIRQRPPRLPRPRPRPIMAPRP    middle interval
RRIRWRPPRLPRPRPRPDTVPRP    middle interval
RRIRHRPPRLPRPRPRPCGFPRP    high interval
RRIRERPPRLPRPRPRPFQLPRP    middle interval

Data request: Assign a bin to RRIRVRPPRLPRPRPRPPKCPRP
Data returned: low interval

Data request: Which category does the recorded shrunken log2 fold change put RRIRWRPPRLPRPRPRPRFLPRP in?
Data returned: middle interval

Data request: Kindly identify the class of RRIRCRPPRLPRPRPRPTSVPRP .
Data returned: middle interval

Data request: Band for the recorded shrunken log2 fold change of RRIRWRPPRLPRPRPRPMHRPRP ?
Data returned: low interval

Data request: Which bin should I file RRIRARPPRLPRPRPRPPVCPRP under?
Data returned: high interval

Data request: Determine which band this sequence sits in: RRIRMRPPRLPRPRPRPTCSPRP
Data returned: high interval

Data request: Exercise: read the entry RRIRCRPPRLPRPRPRPARWPRP and state which class it falls under.
Data returned: high interval

Data request: Hello team, could you let me know which band the following sequence falls into: RRIRLRPPRLPRPRPRPLWIPRP
Data returned: low interval

Data request: Which of the defined bands does the recorded shrunken log2 fold change of RRIRDRPPRLPRPRPRPCSVPRP sit within?
Data returned: middle interval

====

Recorded shrunken log2 fold change for the following sequences
Tested on: Escherichia coli TOP10
Assay: shrunken log2 fold change of peptide-encoding DNA abundance (4.5 h post-induction vs induction); higher = less antimicrobial activity (less host growth inhibition)
Details: time post-induction: 4.5 h; library: site-saturation at positions 5, 18, 19, 20

Below: 6 sequences and their reported shrunken log2 fold change.
RRIRARPPRLPRPRPRPGTWPRP    0.161
RRIRWRPPRLPRPRPRPVDRPRP    -0.0331
RRIRTRPPRLPRPRPRPKDNPRP    -0.5
RRIRPRPPRLPRPRPRPWVFPRP    0.0691
RRIRARPPRLPRPRPRPFDAPRP    0.116
RRIRNRPPRLPRPRPRPIIRPRP    -0.00165

# shrunken log2 fold change of RRIRDRPPRLPRPRPRPVKGPRP = 0.0617

The sequence listed as RRIRSRPPRLPRPRPRPQYMPRP has a reported shrunken log2 fold change of -0.695

Form: sequence = RRIRSRPPRLPRPRPRPLEWPRP ; shrunken log2 fold change = 0.14

The sequence RRIRKRPPRLPRPRPRPNWYPRP showed shrunken log2 fold change equal to -0.185

Entry RRIRRRPPRLPRPRPRPCQHPRP ; shrunken log2 fold change = -0.153

Summary for this sequence, RRIRYRPPRLPRPRPRPNTIPRP : shrunken log2 fold change is -1.05

Consider RRIRPRPPRLPRPRPRPFWEPRP . Its measured shrunken log2 fold change is -0.0196

Input RRIRTRPPRLPRPRPRPGNHPRP . Output shrunken log2 fold change: -0.731

Measured shrunken log2 fold change, RRIRQRPPRLPRPRPRPECIPRP : -0.269

Sure, the documented shrunken log2 fold change for RRIRGRPPRLPRPRPRPDMQPRP is 0.37

Record summary for RRIRCRPPRLPRPRPRPCLLPRP : reported shrunken log2 fold change = -1.45

Form: sequence = RRIRRRPPRLPRPRPRPPARPRP ; shrunken log2 fold change = 0.762

The measured shrunken log2 fold change associated with RRIRNRPPRLPRPRPRPPKNPRP reads 0.196

Documented shrunken log2 fold change of RRIRLRPPRLPRPRPRPWAGPRP : -0.0317

====

Test system: Escherichia coli TOP10
Assay: shrunken log2 fold change of peptide-encoding DNA abundance (4.5 h post-induction vs induction); higher = less antimicrobial activity (less host growth inhibition)
Conditions: time post-induction: 4.5 h; library: site-saturation at positions 5, 18, 19, 20
Where shrunken log2 fold change equals or exceeds -0.04, the correct label is criterion met; where it does not, the label is criterion not met.

Use the examples below as a reference point.
RRIRGRPPRLPRPRPRPLSGPRP    criterion met
RRIRMRPPRLPRPRPRPDQPPRP    criterion met
RRIRGRPPRLPRPRPRPPHKPRP    criterion met
RRIRTRPPRLPRPRPRPQTLPRP    criterion not met
RRIRCRPPRLPRPRPRPHFTPRP    criterion not met

Data request: Kindly determine if shrunken log2 fold change recorded for RRIRDRPPRLPRPRPRPEWKPRP is above or exactly -0.04.
Data returned: criterion met

Data request: Does shrunken log2 fold change meet or surpass -0.04 for RRIRTRPPRLPRPRPRPKRNPRP ?
Data returned: criterion met

====

Reported shrunken log2 fold change values for a set of sequences
Tested on: Escherichia coli TOP10
Experiment: shrunken log2 fold change of peptide-encoding DNA abundance (4.5 h post-induction vs induction); higher = less antimicrobial activity (less host growth inhibition)
Conditions: time post-induction: 4.5 h; library: site-saturation at positions 5, 18, 19, 20

Example entries and their recorded answers appear below.
RRIRQRPPRLPRPRPRPNCSPRP    -0.0334
RRIRGRPPRLPRPRPRPLCMPRP    0.605
RRIRHRPPRLPRPRPRPILFPRP    -0.148
RRIRPRPPRLPRPRPRPTMQPRP    0.393
RRIRSRPPRLPRPRPRPKMFPRP    -0.00685

Value of shrunken log2 fold change reported for the sequence RRIRHRPPRLPRPRPRPEVFPRP is -0.0194

GET /value?item= RRIRIRPPRLPRPRPRPKHFPRP &field=shrunken log2 fold change returns -0.292

For RRIRARPPRLPRPRPRPFWAPRP the sequence record lists shrunken log2 fold change as 0.218

Per the records, this sequence ( RRIRSRPPRLPRPRPRPAEDPRP ) has shrunken log2 fold change equal to -0.0146

The reported value for RRIRKRPPRLPRPRPRPCVDPRP in terms of shrunken log2 fold change is 0.268

Input RRIRHRPPRLPRPRPRPALWPRP . Output shrunken log2 fold change: 0.701

shrunken log2 fold change recorded for this sequence, RRIRVRPPRLPRPRPRPKTSPRP , is -0.128

// RRIRMRPPRLPRPRPRPYIFPRP : shrunken log2 fold change value = -0.265

The measured shrunken log2 fold change associated with RRIRVRPPRLPRPRPRPYYWPRP reads -0.0974

// shrunken log2 fold change lookup, sequence = RRIRDRPPRLPRPRPRPLIFPRP , result: 0.135

====

Catalogue of shrunken log2 fold change values
Test system: Escherichia coli TOP10
Assay: shrunken log2 fold change of peptide-encoding DNA abundance (4.5 h post-induction vs induction); higher = less antimicrobial activity (less host growth inhibition)
Conditions: time post-induction: 4.5 h; library: site-saturation at positions 5, 18, 19, 20
Form field (numeric): enter value without unit.

RRIRGRPPRLPRPRPRPRPSPRP    0.49

Given item RRIRKRPPRLPRPRPRPSHRPRP , the value recorded as its shrunken log2 fold change is -0.0303

Lab note: measured shrunken log2 fold change of RRIRARPPRLPRPRPRPYHTPRP was -0.407

Per the record, RRIRERPPRLPRPRPRPTVRPRP has shrunken log2 fold change of -0.00266

For this sequence ( RRIRNRPPRLPRPRPRPCRIPRP ), measured shrunken log2 fold change is -0.134

====

Tested on: Escherichia coli TOP10;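 note: peptides expressed intracellularly from a pBAD plasmid library in pooled LB shake-flask culture, induced with 0.3% L-arabinose, DNA abundance read by NGS, three biological replicates, DESeq2 with apeglm shrinkage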
Assay: shrunken log2 fold change of peptide-encoding DNA abundance (4.5 h post-induction vs induction); higher = less antimicrobial activity (less host growth inhibition)
Settings: time post-induction: 4.5 h; library: site-saturation at positions 5, 18, 19, 20
Entry flag: fulfilled if shrunken log2 fold change reaches -0.2; not fulfilled if it does not.

RRIRCRPPRLPRPRPRPIYPPRP    not fulfilled
RRIRIRPPRLPRPRPRPDTNPRP    not fulfilled
RRIRTRPPRLPRPRPRPYIMPRP    not fulfilled
RRIRSRPPRLPRPRPRPDVMPRP    fulfilled
RRIRSRPPRLPRPRPRPKRIPRP    not fulfilled

Data request: Does RRIRYRPPRLPRPRPRPISKPRP have a reported shrunken log2 fold change of at least -0.2?
Data returned: not fulfilled

Data request: Item RRIRHRPPRLPRPRPRPTKFPRP with shrunken log2 fold change of -0.2 or above?
Data returned: fulfilled

Data request: Decide: is the reported value of shrunken log2 fold change for RRIRMRPPRLPRPRPRPEALPRP equal to or greater than -0.2?
Data returned: fulfilled
